test: chemical genetic growth profiling, strain panel (AID 1159580);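 also: tested at 20 µM; growth read once vehicle control cultures reached saturation at 30 °C; 1 = growth at the plate median or of vehicle wells; lower values mean less growth of the strain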
test conditions: S. cerevisiae deletion strains, growth OD, locus YLR371W, strain rom2, hits give low values
Among all 5,500 compounds or so, about 2,000 (36%) were called active. About 18% were inconclusive and are not listed. The list shows a part of the results.
Quick rule for you: normalized growth under 1 gets class 1, anything else gets class 0.

CC(=O)OC1CN2CCC1CC2 (configuration not stated) ... class 1

Asked: Hello, is normalized growth of the following compound strictly smaller than 1? CC1(C)C=CC(=O)[C@@]2(C)C1CC(=O)[C@]1(C)C2CC[C@@]2(C)[C@H](c3ccoc3)OC(=O)C3OC321 (some centres not stated)
Given back: class 1

Asked: Hello, is normalized growth of the following compound strictly smaller than 1? CO[C@@]1(NC(=O)C(C(=O)O)c2ccc(O)cc2)C(=O)N2C(C(=O)O)=C(CSc3nnnn3C)CO[C@@H]21 (some centres not stated)
Given back: class 0

Asked: Hello, is normalized growth of the following compound strictly smaller than 1? CC1(C)C(=O)C=C[C@@]2(C)C1C=C[C@]1(C)C2CC[C@@]2(C)[C@H](c3ccoc3)OC(=O)C3OC321 (some centres not stated)
Given back: class 1

###

test: chemical genetic growth profiling, strain panel (AID 1159580)
test conditions: S. cerevisiae deletion strains, growth OD, locus YJL187C, strain SWE1 (second series)
Screen size: about 5,500 compounds; about 2,000 (36%) were called active. Not shown: some 18% with an inconclusive outcome. Cut-off read from the data, not from the text of the source: active = normalized growth mostly below about 0.91 (no sharp cut-off); inconclusive = no clear call, values can overlap the other calls; inactive = mostly above about 0.92. This is one part of the list.
Hi there, use one of these labels in your reply, thanks! active, inactive

Field: example entries. Status: answers known.
C[C@]12CCC3c4ccc(O)cc4CCC3C1C[C@@H](O)[C@@H]2O (stereo partly specified) ... inactive
COc1cc(OC)c2c(=O)c(O)c(-c3ccc(OC)c(OC)c3)oc2c1 ... active
COc1ccc2c(c1)CCC1C2CCC2(C)C1C[C@@H](O)C2O (stereo partly specified) ... inactive
C[C@@H]1CC[C@@]2(OC1)O[C@H]1CC3C4CC[C@H]5C[C@@H](O)CC[C@]5(C)C4CC[C@]3(C)[C@H]1[C@@H]2C (stereo partly specified) ... inactive
COc1cc(O)c2c(=O)c(O)c(-c3ccc(O)c(O)c3)oc2c1 ... active

Asked: So what was the verdict on COc1ccc(-c2oc3c(CC=C(C)C)c(O[C@@H]4O[C@H](CO)[C@@H](O)[C@H](O)[C@H]4O)cc(O)c3c(=O)c2O[C@@H]2O[C@@H](C)[C@H](O)[C@@H](O)[C@H]2O)cc1 in this test?
Given back: inactive

Asked: So what was the verdict on CC(=O)OCC1=C(C(=O)O)N2C(=O)[C@@H](NC(=O)Cc3cccs3)[C@H]2SC1 in this test?
Given back: inactive

Asked: So what was the verdict on C[C@]12CCC3c4ccc(OS(=O)(=O)O)cc4CCC3C1CC[C@H]2O (stereo partly specified) in this test?
Given back: inactive

Asked: So what was the verdict on CC12CCC3c4ccc(OC(=O)c5ccccc5)cc4CCC3C1CCC2O (stereo unspecified) in this test?
Given back: inactive

Asked: So what was the verdict on COc1ccc2c(c1)CCC1C2CC[C@@]2(C)C1CC[C@@H]2O (stereo partly specified) in this test?
Given back: active

Asked: So what was the verdict on CC1CC[C@@]2(OC1)O[C@H]1CC3C4CC[C@@H]5C[C@@H](O)CC[C@]5(C)C4CC[C@]3(C)[C@H]1[C@@H]2C (stereo partly specified) in this test?
Given back: inactive

###

test: chemical genetic growth profiling, strain panel (AID 1159580)
test conditions: S. cerevisiae deletion strains, growth OD, locus YNL298W, strain CLA4 (second series), hits give low values
Hit rate of the full screen: of about 5,500 compounds, about 2,000 (36%) were called active. Not shown: some 18% with an inconclusive outcome. The list shows a part of the results.
recorded metric: normalized growth
Give bare numbers.

Take a look at these entries with their results.
CCOC(=O)c1sc(SC(C)C)c2c1CCCC2=O ... 0.835
C=C1SC(Nc2cccc(C(F)(F)F)c2)=NC12CCCCC2 ... 0.985
FC(F)(F)c1ccc(Cl)c(NC(=S)NN=C2CCCCCC2)c1 ... 0.813
CN(C)C=Nc1nnc(Sc2nc3cc(Cl)ccc3s2)s1 ... 0.887
CCOC(=O)c1sc(S(C)(=O)=O)c2c1CCCC2O (stereo unspecified) ... 1.03

Turning now to a further compound:
Asked: Consider the compound COc1cc(/C=C(\C#N)C(N)=S)cc(OC)c1OC and give its measured normalized growth.
Given back: 0.886

###

test: chemical genetic growth profiling, strain panel (AID 1159580)
test conditions: S. cerevisiae deletion strains, growth OD, locus YLL001W, strain dnm1, hits give low values
The campaign covered roughly 5,500 compounds. About 2,000 (36%) were called active. Another 18% or so got no clear call; they are omitted. The list shows a part of the results.
Quick rule for you: normalized growth under 1 gets Yes, anything else gets No.

Field: example entries. Status: answers known.
CCOC(=O)c1c(C)cc(OC)cc1O ... Yes
CN[C@@H]1C(O)[C@@H](O[C@@H]2[C@@H](O)[C@H](O[C@H]3OC(CN)=CC[C@H]3N)[C@@H](N)C[C@H]2N)OC[C@]1(C)O (stereo partly specified) ... No
CCCCCCCCCCCC1=C(O)C(=O)C=C(O)C1=O ... Yes

Asked: Hello, is normalized growth of the following compound strictly smaller than 1? O=C1C=C2C(=CCOC2O)O1 (stereo unspecified)
Given back: Yes

###

test: chemical genetic growth profiling, strain panel (AID 1159580);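 also: tested at 20 µM; growth read once vehicle control cultures reached saturation at 30 °C; 1 = growth at the plate median or of vehicle wells; lower values mean less growth of the strain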
test conditions: S. cerevisiae deletion strains, growth OD, locus YAL013W, strain DEP1, hits give low values
The campaign covered roughly 5,500 compounds. About 2,000 (36%) were called active. Another 18% or so got no clear call; they are omitted. The list shows a part of the results.
Kindly state normalized growth for each of the entries shown.
Give bare numbers.

COc1ccc(-c2oc3cc(O[C@H]4O[C@H](CO)[C@@H](O)[C@H](O)[C@H]4O)c(OC)c(O)c3c(=O)c2OC)cc1O ... 1.02
O=c1c(O)c(-c2ccc(O)cc2O)oc2cc(O)cc(O)c12 ... 1
C[C@@H]1O[C@@H](OC[C@H]2OC(Oc3c(-c4ccc(O)c(O)c4)oc4cc(O)cc(O)c4c3=O)[C@H](O)[C@@H](O)[C@@H]2O)[C@H](O)[C@H](O)[C@H]1O (stereo partly specified) ... 0.995
CNC(C)C(O)c1ccccc1 (stereo unspecified) ... 1
CC1O[C@@H](Oc2c(-c3ccc(O)c(O)c3)oc3cc(O)cc(O)c3c2=O)[C@H](O)[C@H](O)[C@H]1O (stereo partly specified) ... 1

Turning now to a further compound:
Asked: Consider the compound C[C@@H]([C@H](O)c1ccccc1)N(C)C and give its measured normalized growth.
Given back: 1.01

###

test: chemical genetic growth profiling, strain panel (AID 1159580);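 also: tested at 20 µM; growth read once vehicle control cultures reached saturation at 30 °C; 1 = growth at the plate median or of vehicle wells; lower values mean less growth of the strain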
test conditions: S. cerevisiae deletion strains, growth OD, locus YBR279W, strain paf1
In all, about 5,500 compounds went through this assay and about 2,000 (36%) were called active. Another 18% or so got no clear call; they are omitted. Cut-off read from the data, not from the text of the source: active = normalized growth mostly below about 0.91 (no sharp cut-off); inconclusive = no clear call, values can overlap the other calls; inactive = mostly above about 0.92. Some of the results follow.
Hi there, use one of these labels in your reply, thanks! active, inactive

Field: example entries. Status: answers known.
CC(CC(O)C1OC1(C)C)[C@@H]1CCC2(C)C3=CCC4C(C)(C)C(=O)CCC4(C)C3CC[C@@]12C (stereo not given in full) ... inactive
CC1(C)C2CC(=O)[C@]3(C)C(CC[C@@]4(C)[C@H](c5ccoc5)OC(=O)C5OC543)[C@@]2(C)[C@@H](O)C[C@H]1O (stereo not given in full) ... inactive
COc1cccc2c(C)cc(=O)[nH]c12 ... inactive
NC(N)=NC(=O)c1nc(Cl)c(N)nc1N ... inactive
CCCCC1C(=O)N(c2ccccc2)N(c2ccc(O)cc2)C1=O (stereo not given) ... inactive
CC(=O)Oc1ccc2c(c1C(C)C)CCC1C(C)(C)CCC[C@]21C (stereo not given in full) ... inactive

Asked: So what was the verdict on CC1(C)C(=O)C=C[C@@]2(C)C1CC(=O)[C@]1(C)C2CC[C@@]2(C)[C@H](c3ccoc3)OC(=O)[C@H]3O[C@]321 (stereo not given in full) in this test?
Given back: inactive

Asked: So what was the verdict on CC(=O)OC(C)C[N+](C)(C)C (stereo not given) in this test?
Given back: inactive

Asked: So what was the verdict on C[C@]12CCC3c4ccc(O)cc4CCC3C1C[C@@H](O)[C@@H]2O (stereo not given in full) in this test?
Given back: inactive

Asked: So what was the verdict on COc1ccc2c(c1)CCC1C2CCC2(C)C1C[C@@H](O)C2O (stereo not given in full) in this test?
Given back: inactive

###

test: chemical genetic growth profiling, strain panel (AID 1159580);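 also: tested at 20 µM; growth read once vehicle control cultures reached saturation at 30 °C; 1 = growth at the plate median or of vehicle wells; lower values mean less growth of the strain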
test conditions: S. cerevisiae deletion strains, growth OD, locus YDL101C, strain DUN1
The campaign covered roughly 5,500 compounds. About 2,000 (36%) were called active. Not shown: some 18% with an inconclusive outcome. No stated cut-off is given here; in the data, active means normalized growth mostly below about 0.91 (no sharp cut-off); inconclusive means no clear call, values can overlap the other calls; inactive means mostly above about 0.92. The list shows a part of the results.
Hi there, use one of these labels in your reply, thanks! active, inactive

Cc1cc(Br)c(NC(=O)C(Cl)(Cl)Cl)c(Br)c1 ... inactive

Asked: So what was the verdict on COc1ccc(/C=C2/C(=O)Nc3ccccc32)cc1 in this test?
Given back: active

Asked: So what was the verdict on CCOC(=O)c1c(C)cc(OC)cc1O in this test?
Given back: inactive

Asked: So what was the verdict on CCCC(C)(COC(N)=O)COC(=O)NC(C)C (centres undefined) in this test?
Given back: inactive
